Tested on: ACHN
ASSAY REMARKS: NCI tumour cell line growth inhibition, 48 h
Activity calls are given as the source filed them. Rule as the data show it: active = GI50 up to about 1.1 µM and inactive = higher.
Valid outcomes are listed here; reply with one: active, inactive

Examples from the recorded data:
MOLECULE	EXPERIMENTAL SYSTEM	ASSIGNED LABEL
Cc1noc(NC(=O)Nc2ccccc2F)c1C#N	ACHN	inactive
O=C1C(=O)c2ccccc2C=C1[N+](=O)[O-]	ACHN	inactive
CN(N=O)C(=O)Nc1ccc(C(=O)O)cc1	ACHN	inactive
O=C(/C=C/c1ccc(O)c(O)c1)OCCc1cccc2ccccc12	ACHN	inactive
Cc1cc(CC(=O)NCCO)n(CCO)c(=O)c1	ACHN	inactive
CC1(C)COP(=S)(c2ccccn2)O[C@@H]1c1ccccc1 (some centres undefined)	ACHN	inactive

Please share the test call associated with "CN(CCCNc1ccc2ncn3c4ccccc4c(=O)c1c23)CCCN1C(=O)c2cccc3cc([N+](=O)[O-])cc(c23)C1=O" . active

Please share the test call associated with "COc1ccc(/N=N/C(=N/NC(=O)c2ccc(C)cc2)c2ccc(N(CCC#N)CCC#N)cc2OC)cc1" . inactive

Please share the test call associated with CC1=CC(C)C(C)N(CCNC(=O)Nc2ccccc2)c2ccccc21 (centres undefined) . inactive

* * *

System: Malme-3M
ASSAY REMARKS: NCI tumour cell line growth inhibition, 48 h
Calls of active or inactive are those of the source. Rule as the data show it: active = GI50 up to about 1.1 µM and inactive = higher.
Valid outcomes are listed here; reply with one: active, inactive

Examples from the recorded data:
COMPOUND	ASSIGNED LABEL
OC1[C@H](O)CN(OCc2ccccc2)C[C@@H]1O (some centres undefined)	inactive
Oc1cc(-c2ccco2)nc2cc3c(cc12)OCO3	inactive
CC1=CC(C)C(C)N(CCNC(=O)Nc2ccccc2)c2ccccc21 (centres undefined)	inactive
COC(=O)C1=NN2c3ccccc3CN([C@@H](C)c3ccccc3)C(=O)[C@@H]2[C@H]1c1ccccc1	inactive
CC(=O)N(C(=O)CC(=O)N/N=C\c1ccc(Br)c(N(CCC#N)CCC#N)c1)c1ccc(Cl)cc1	inactive
Cn1c2ccccc2c2c3c(c4c5ccccc5n(C)c4c21)C(=O)N(c1ccccc1)C3=O	inactive

Please share the test call associated with COC(=O)C1CCc2nnc(-c3ccccc3)n21 (centres undefined) . inactive

Please share the test call associated with Oc1ccc2c3c1OC1C(=NN=C4CCC5(O)C6Cc7ccc(O)c8c7C5(CCN6CC5CC5)C4O8)CCC4(O)C(C2)N(CC2CC2)CCC314 (centres undefined) . inactive

Please share the test call associated with "CC(C)Oc1cccc(N2C(NCCc3c[nH]c4ccccc34)=Nc3ccncc3S2(=O)=O)c1" . inactive

Please share the test call associated with "CSc1c(C#N)c(N)nc2c(/N=N\c3ccc(Br)cc3)c(N)nn12" . inactive

* * *

The following compounds are listed with their measured GI50 values.
System: HOP-18
ASSAY REMARKS: NCI tumour cell line growth inhibition, 48 h
The source made the active and inactive calls. Cut-off read from the data, not from the text of the source: active = GI50 up to about 1.1 µM and inactive = higher.

COMPOUND	EXPERIMENTAL SYSTEM	GI50
CCOC(=O)/C=C/c1c(C)[nH]c(=O)[nH]c1=O	HOP-18	> 250 µM (inactive)

State its GI50 on HOP-18: COC1C(OC(=O)/C=C/C=C/C=C/C=C/C(=O)O)CCC2(CO2)C1C1(C)OC1CC=C(C)C (configuration not stated) 23.4 µM (inactive)

State its GI50 on HOP-18: CCCCCCC(O)CC[C@H]1CCC[C@@H](C)N1 (some centres not stated) > 100 µM (inactive)

State its GI50 on HOP-18: "Cn1c(=O)nc2n(-c3ccc(F)c(F)c3)c3ccccc3nc-2c1=O" 27.5 µM (inactive)

State its GI50 on HOP-18: N#CCC(=O)N/N=C1/C(=O)NC(=O)C(=O)C1c1nc2ccccc2s1 (configuration not stated) > 100 µM (inactive)

State its GI50 on HOP-18: "Cc1csc2nc(-c3ccncc3)cn12" > 57.9 µM (inactive)

State its GI50 on HOP-18: "C/C(=N\NS(=O)(=O)c1ccccc1)c1ccccc1" > 100 µM (inactive)

State its GI50 on HOP-18: CCOP(=O)(C/C(O)=C1\C(=O)C(CCCNC(=O)OC(C)(C)C)N(Cc2ccc(OC)c(OC)c2)C1=O)OCC (configuration not stated) > 100 µM (inactive)
